assay: Cell Viability - Renal Proximal Tubule (AID 545); details: renal proximal tubule cells viability, primary cells of rat origin; at 91.7 µM (top of the series);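 further: cells exposed to compound for 40 hours; 0% = DMSO only and -100% = 100 µM tamoxifen; nearly all actives have a fitted effect of over 40% in size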
Results filed as inconclusive are left out. Calls of active or inactive are those of the source. The call rests on the fitted dose curve; in most records, active means well fitted cell-killing curve with a large enough effect; inconclusive means small, poorly fitted or top-dose-only effect; inactive means flat fitted curve, though single readings scatter.
Labels: active, inactive

>>> class("Nc1ccc(O)c([N+](=O)[O-])c1")
"inactive"
>>> class("CCCCCCCCCCCCCCCCCC(=O)O")
"inactive"
>>> class("CC1(C)S[C@@H]2[C@H](NC(=O)[C@H](N)c3ccccc3)C(=O)N2[C@H]1C(=O)O")
"inactive"
>>> class("NCCO")
"inactive"
>>> class("Oc1ccccc1O")
"inactive"
>>> class("c1ccc2sc(SSc3nc4ccccc4s3)nc2c1")
"inactive"
>>> class("Nc1ccc(O)c(C(=O)O)c1")
"inactive"
>>> class("N=C1N=C(N)c2cc3ccccc3cc21")
"active"
>>> class("S=c1[nH]c2ccccc2s1")
"inactive"

* * *

tested on: AS120; assay: qHTS profiling for inhibitors of Plasmodium falciparum proliferation (AID 504749); further: nearly all actives have a fitted effect of over 60% in size; conditions: P. falciparum in erythrocytes, SYBR Green DNA, 72 h; series mostly up to 28.7 µM
Inconclusive results are not listed. Active and inactive are the calls of the source. The call rests on the fitted dose curve; in most records, active means well fitted inhibition curve with a large enough effect; inconclusive means small, poorly fitted or top-dose-only effect; inactive means flat fitted curve, though single readings scatter. Where a SMILES comes first, the peptide text is derived from it. [ ]: non-standard residue; d: D form. pGlu = O=C1CC[C@@H](C(=O)O)N1; Thz = O=C(O)[C@@H]1CSCN1
Labels: true = active, false = inactive

>>> class("CCCCCC[C@@H](O)C/C=C\\CCCCCCCC(=O)O")
"false"
>>> class("CC1(C)S[C@@H]2[C@H](NC(=O)[C@H](NC(=O)N3CCN(S(C)(=O)=O)C3=O)c3ccccc3)C(=O)N2[C@H]1C(=O)O")
"false"
>>> class("O=C(O)[C@H](O)[C@@H](O)[C@H](O)[C@H](O)CO")
"false"
>>> class("O=C1CC[C@@H](C(=O)N2CSC[C@H]2C(=O)O)N1 ([pGlu]-[Thz]-OH)")
"false"
>>> class("Nc1cc(-c2ccncc2)c[nH]c1=O")
"false"
>>> class("CN(C)c1ccc(C(=C2C=CC(=[N+](C)C)C=C2)c2ccccc2)cc1")
"true"
>>> class("N=c1ccn2c(n1)O[C@H]1[C@H](O)[C@@H](CO)O[C@H]12")
"false"
>>> class("COc1cc(CNC(=O)CCCC/C=C/C(C)C)ccc1O")
"false"
>>> class("O=C(CCN1CCN(CCO)CC1)N1c2ccccc2Sc2ccc(C(F)(F)F)cc21")
"true"
>>> class("Cc1cc(O)c2ccccc2c1O")
"false"
>>> class("Nc1ccc(O)c(C(=O)O)c1")
"false"
>>> class("O=C(O)[C@H](CC(=O)N1C[C@H]2CCCC[C@H]2C1)Cc1ccccc1")
"false"
>>> class("CCOC(=O)c1ccccc1O")
"false"
>>> class("Cc1c(Nc2ncccc2C(=O)O)cccc1C(F)(F)F")
"false"
>>> class("COc1ccc(/C=C/C(=O)Nc2ccccc2C(=O)O)cc1OC")
"false"
>>> class("[O-][n+]1ccccc1SSc1cccc[n+]1[O-]")
"true"

* * *

tested on: CP203; assay: qHTS profiling for inhibitors of Plasmodium falciparum proliferation (AID 504749); further: nearly all actives have a fitted effect of over 60% in size; conditions: P. falciparum in erythrocytes, SYBR Green DNA, 72 h; series mostly up to 28.7 µM
Inconclusive results are not listed. Activity calls are given as the source filed them. Calls follow the shape of the dose curve; as a rule, active = well fitted inhibition curve with a large enough effect; inconclusive = small, poorly fitted or top-dose-only effect; inactive = flat fitted curve, though single readings scatter. Where a SMILES comes first, the peptide text is derived from it. [ ]: non-standard residue; d: D form. pGlu = O=C1CC[C@@H](C(=O)O)N1; Thz = O=C(O)[C@@H]1CSCN1
Labels: true (1) = active, false (0) = inactive

>>> class("O=C(Nc1ccc(C(=O)O)c(O)c1)c1ccccc1")
"false (0)"
>>> class("c1ccc2sc(SSc3nc4ccccc4s3)nc2c1")
"false (0)"
>>> class("CC(C(=O)O)c1ccc2c(c1)[nH]c1ccc(Cl)cc12 (stereo not given)")
"false (0)"
>>> class("CCCCCCCCCCCCCCCCCC(=O)O")
"false (0)"
>>> class("Cc1ccccc1CNc1ncnc2c1ncn2C1OC(CO)C(O)C1O (stereo not given)")
"false (0)"
>>> class("CCCCCC[C@@H](O)C/C=C\\CCCCCCCC(=O)O")
"false (0)"
>>> class("CCOc1ccc2nc(S(N)(=O)=O)sc2c1")
"false (0)"
>>> class("CCCCCCCCCCCCCCCC(=O)OC(C)C")
"false (0)"
>>> class("Oc1c(Br)cc(Br)c2cccnc12")
"false (0)"
>>> class("O=C(O)COc1ccc(C(=O)c2cccs2)c(Cl)c1Cl")
"false (0)"
>>> class("O=C(CCN1CCN(CCO)CC1)N1c2ccccc2Sc2ccc(C(F)(F)F)cc21")
"false (0)"
>>> class("O=C(/C=C/c1ccccc1)NCCO")
"false (0)"
>>> class("Cc1cc(O)c2ccccc2c1O")
"false (0)"
>>> class("CN1[C@@H]2CC[C@H]1CC(OC(=O)C(CO)c1ccccc1)C2 (stereo not given in full)")
"false (0)"
>>> class("O=C(O)[C@H](CC(=O)N1C[C@H]2CCCC[C@H]2C1)Cc1ccccc1")
"false (0)"
>>> class("CCCCCCCCCCCC(=O)[O][Sn]([CH2]CCC)([CH2]CCC)[O]C(=O)CCCCCCCCCCC")
"false (0)"
>>> class("CC1(C)C[C@@H]1C(=O)N/C(=C\\CCCCSC[C@H](N)C(=O)O)C(=O)O")
"false (0)"
>>> class("CN1CCN(c2cc3c(nn2)Oc2ccccc2N3C)CC1")
"false (0)"
>>> class("CN(C)c1ccc(C(=C2C=CC(=[N+](C)C)C=C2)c2ccccc2)cc1")
"true (1)"
>>> class("O=C1CC[C@@H](C(=O)N2CSC[C@H]2C(=O)O)N1 ([pGlu]-[Thz]-OH)")
"false (0)"
>>> class("Cc1nc2ccccc2n1Cc1ccc(Cl)cc1")
"false (0)"
>>> class("COc1cc2c3cc1Oc1cc(ccc1O)C[C@@H]1c4c(cc(OC)c(O)c4Oc4ccc(cc4)C[C@@H]3N(C)CC2)CC[N+]1(C)C")
"false (0)"
>>> class("CCCCC[C@H](O)/C=C/[C@@H]1[C@@H](C/C=C\\CCCC(=O)O)[C@@H](O)C[C@H]1O")
"false (0)"
>>> class("CC1(C)S[C@@H]2[C@H](NC(=O)[C@H](NC(=O)N3CCN(S(C)(=O)=O)C3=O)c3ccccc3)C(=O)N2[C@H]1C(=O)O")
"false (0)"
>>> class("C=C(Nc1ccc(OCC)cc1)Nc1ccc(OCC)cc1")
"false (0)"
